- Tested on: SW620
- Test: cells
- Set-up: species or system SW620 MTHFD2-/-, HCT116, PA-TU-8988T; Resazurin cell viability dose-response in 384-well plates, fluorescence at 595 nm, logistic fit
- Test Settings: Homo sapiens, SW-620, 96 h, Figure 1=Extended Data Fig.5c; C=RPMI+GlutaMAX (5% dFBS, 1% P/S); D=Vehicle; 96 h viability, no metabolite rescue (vehicle); read-out: EC50 compound
Property Label: pEC50
Convention used: pEC50 is expressed as -log10 of the molar concentration.

Query block: # return recorded pEC50 for entry CN(Cc1cnc2nc(N)nc(N)c2n1)c1ccc(C(=O)N[C@@H](CCC(=O)O)C(=O)O)cc1 [MTX]
Result block: 7.97
